Every entry's value here was drawn from ChEMBL document CHEMBL1201862.

# System: DLD-1
# assay_comment: NCI tumour cell line growth inhibition, 48 h
Activity calls are given as the source filed them. Rule as the data show it: active = GI50 up to about 1.1 µM and inactive = higher.
Entries and their GI50

COC(=O)[C@@]12CC(C(C)C)[C@H]3CC(C(=O)C=C1OC)[C@H]32 (some centres not stated) ... > 100 µM (inactive)

The reported GI50 value, DLD-1, for CCCCOC(=O)NC(=O)c1cn(CCSCCOC(=O)NCCCCCCNC(=O)OCCSCCn2cc(C(=O)NC(=O)OCCCC)c(=O)[nH]c2=O)c(=O)[nH]c1=O reads > 100 µM (inactive)

The reported GI50 value, DLD-1, for C(=N\CC/N=C/c1cccc2ccccc12)/c1cccc2ccccc12 reads > 100 µM (inactive)

The reported GI50 value, DLD-1, for c1ccc(C2OCCO2)c(OCCOc2cc(OCCOc3ccccc3C3OCCO3)c(OCCOc3ccccc3C3OCCO3)cc2OCCOc2ccccc2C2OCCO2)c1 reads > 100 µM (inactive)

The reported GI50 value, DLD-1, for C[C@@H]1O[C@@H](O[C@H]2[C@H](Oc3cc(O)c4c(=O)cc(-c5ccc(O)cc5)oc4c3)O[C@H](CO)[C@@H](O)[C@@H]2O)[C@H](O)[C@H](O)[C@H]1O reads > 100 µM (inactive)

The reported GI50 value, DLD-1, for Cc1ccccc1N1C(=O)/C(=C/c2ccc(N(CCC#N)CCC#N)cc2)N=C1c1cc([N+](=O)[O-])ccc1Cl reads 79.1 µM (inactive)

The reported GI50 value, DLD-1, for CCCCCCCCC(C)CCCCCCCCC(=O)OCC(COP(=O)([O-])OCC[N+](C)(C)C)OC(=O)CCCCCCCCC(C)CCCCCCCC (configuration not stated) reads > 100 µM (inactive)
